FYI, the data here is from patent US20200062863A1.

Target: T1, human Factor XIIa-beta (human, UniProt P00748 354-615, limits assumed)
T1 construct: Bought from Enzyme Research Laboratories; also called FXIIa beta; FXIIa-beta
T1 sequence: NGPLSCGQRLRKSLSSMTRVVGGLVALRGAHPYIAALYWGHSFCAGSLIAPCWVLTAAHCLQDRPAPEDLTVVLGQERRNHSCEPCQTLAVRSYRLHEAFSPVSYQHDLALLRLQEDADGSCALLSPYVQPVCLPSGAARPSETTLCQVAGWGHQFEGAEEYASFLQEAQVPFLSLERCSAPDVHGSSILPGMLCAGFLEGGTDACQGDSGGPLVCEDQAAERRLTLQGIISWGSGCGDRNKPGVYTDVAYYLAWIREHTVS
Procedure details: SPR (Biacore A100), unpurified IgG4 supernatant captured on anti-human IgG, single FXIIa beta concentration (100 nM), 37 C, 1:1 fit; estimated
Entries and their pKd
A value of pKd is the negative decimal logarithm of a concentration given in moles per litre.

Check out these entries, answers already filled in.
{"columns": ["Binder", "Endpoint value"],
 "data": [
  ["VR53 (antibody, V domains shown, Libraries were built on germline stop templates, so frameworks may differ) VH: EVQLLESGGGLVQPGGSLRLSCAASGFTFSKYIMQWVRQAPGKGLEWVSGIRPSGGTTVYADSVKGRFTISRDNSKNTLYLQMNSLRAEDTAVYYCARALPRSGYLISPHYYYYALDVWGQGTTVTVSS VL: QSVLTQPPSASGTPGQRVTISCSGSSSNIGRNYVYWYQQLPGTAPKLLIYSNNQRPSGVPDRFSGSKSGTSASLAISGLRSEDEADYYCAAWDQQVRKTFGGGTKLTVL", 8.15],
  ["VR159 (antibody, V domains shown, Libraries were built on germline stop templates, so frameworks may differ) VH: EVQLLESGGGLVQPGGSLRLSCAASGFTFSKYIMQWVRQAPGKGLEWVSGIRPSGGTTVYADSVKGRFTISRDNSKNTLYLQMNSLRAEDTAVYYCARALPRSGYLVKHGYYYYALDVWGQGTTVTVSS VL: QSELTQPPSASGTPGQRVTISCSGSSSNIGRNYVYWYQQVPGTAPKLLIYSNNQRPSGVPDRFSGSKSGTSASLVISGLRSEDEADYYCAAWDASLRGVFGGGTKLTVLG", 8.16],
  ["VR119 (antibody, V domains shown) VH: EVQLLESGGGLVQPGGSLRLSCAASGFTFSKYIMQWVRQAPGKGLEWVSGINVPLYGTVYADSVKGRFTISRDNSKNTLYLQMNSLRAEDTAVYYCARALPRSGYLISPHYYYYALDVWGQGTTVTVSS VL: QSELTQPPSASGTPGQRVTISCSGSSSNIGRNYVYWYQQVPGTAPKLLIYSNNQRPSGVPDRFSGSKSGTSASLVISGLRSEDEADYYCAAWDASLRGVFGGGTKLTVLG", 8.88],
  ["VR58 (antibody, V domains shown, Libraries were built on germline stop templates, so frameworks may differ) VH: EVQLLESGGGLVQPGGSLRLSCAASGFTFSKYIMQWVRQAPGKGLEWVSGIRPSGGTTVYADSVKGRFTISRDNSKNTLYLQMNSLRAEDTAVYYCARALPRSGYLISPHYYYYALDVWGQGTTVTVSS VL: QSVLTQPPSASGTPGQRVTISCSGSSSNIGRNYVYWYQQLPGTAPKLLIYSNNQRPSGVPDRFSGSKSGTSASLAISGLRSEDEADYYCAAWDPQVRLAFGGGTKLTVL", 8.27],
  ["VR110 (antibody, V domains shown) VH: EVQLLESGGGLVQPGGSLRLSCAASGFTFSKYIMQWVRQAPGKGLEWVSGIDMPTKGTVYADSVKGRFTISRDNSKNTLYLQMNSLRAEDTAVYYCARALPRSGYLISPHYYYYALDVWGQGTTVTVSS VL: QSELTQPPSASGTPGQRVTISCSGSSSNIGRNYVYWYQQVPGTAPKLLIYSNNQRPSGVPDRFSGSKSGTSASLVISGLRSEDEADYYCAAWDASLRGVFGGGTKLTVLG", 8.69],
  ["VR115 (antibody, V domains shown) VH: EVQLLESGGGLVQPGGSLRLSCAASGFTFSKYIMQWVRQAPGKGLEWVSGIDIPTKGTVYADSVKGRFTISRDNSKNTLYLQMNSLRAEDTAVYYCARALPRSGYLISPHYYYYALDVWGQGTTVTVSS VL: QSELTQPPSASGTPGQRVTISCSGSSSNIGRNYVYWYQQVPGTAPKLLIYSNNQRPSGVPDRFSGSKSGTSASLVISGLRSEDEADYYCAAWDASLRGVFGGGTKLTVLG", 8.81],
  ["VR103 (antibody, V domains shown, Libraries were built on germline stop templates, so frameworks may differ) VH: EVQLLESGGGLVQPGGSLRLSCAASGFTFSKYIMQWVRQAPGKGLEWVSGIDVPVRGTVYADSVKGRFTISRDNSKNTLYLQMNSLRAEDTAVYYCARALPRSGYLISPHYYYYALDVWGQGTTVTVSS VL: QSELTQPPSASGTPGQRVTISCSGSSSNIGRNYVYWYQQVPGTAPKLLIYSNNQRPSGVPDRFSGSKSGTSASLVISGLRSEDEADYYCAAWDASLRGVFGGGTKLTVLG", 8.54],
  ["VR62 (antibody, V domains shown, Libraries were built on germline stop templates, so frameworks may differ) VH: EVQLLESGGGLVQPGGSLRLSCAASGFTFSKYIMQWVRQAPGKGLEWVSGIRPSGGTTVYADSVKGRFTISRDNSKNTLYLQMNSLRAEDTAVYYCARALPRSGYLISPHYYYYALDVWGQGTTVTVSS VL: QSVLTQPPSASGTPGQRVTISCSGSSSNIGRNYVYWYQQLPGTAPKLLIYSNNQRPSGVPDRFSGSKSGTSASLAISGLRSEDEADYYCAAWDQQVRLDFGGGTKLTVL", 8.24],
  ["VR108 (antibody, V domains shown, Libraries were built on germline stop templates, so frameworks may differ) VH: EVQLLESGGGLVQPGGSLRLSCAASGFTFSKYIMQWVRQAPGKGLEWVSGINPATKTTVYADSVKGRFTISRDNSKNTLYLQMNSLRAEDTAVYYCARALPRSGYLISPHYYYYALDVWGQGTTVTVSS VL: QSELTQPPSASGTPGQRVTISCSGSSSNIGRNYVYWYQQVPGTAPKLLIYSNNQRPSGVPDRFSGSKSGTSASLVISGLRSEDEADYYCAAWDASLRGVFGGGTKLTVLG", 8.55]
]}

// moving on: another record for pKd
Problem: Please look up its pKd: VR39 (antibody, V domains shown, Libraries were built on germline stop templates, so frameworks may differ) VH: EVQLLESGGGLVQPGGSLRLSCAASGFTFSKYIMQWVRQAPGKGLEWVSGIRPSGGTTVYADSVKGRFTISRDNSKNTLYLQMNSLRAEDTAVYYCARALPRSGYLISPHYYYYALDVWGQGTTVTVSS VL: QSVLTQPPSASGTPGQRVTISCSGSSSNIGRNYVYWYQQLPGTAPKLLIYSNNQRPSGVPDRFSGSKSGTSASLAISGLRSEDEADYYCASWWNDLRGVFGGGTKLTVL
Result: 8.25
